tested on: HL-60(TB) leukemia; experiment: NCI-60 one-dose screen, 48 h; conditions: 10 µM unless noted
About 83,000 compounds went through this panel and 20% of them were active in at least one assay; those are over-represented in the sample as a whole. Active and inactive are the calls of the source. How the source made its calls: active means growth percent below 10; inactive means the rest.
Returns: one label drawn from True = active, False = inactive

What classification did CC1CCc2c(sc(NC(=O)CSc3nnc4ccccn34)c2C(N)=O)C1 (stereo not given) end up with in this test?
False

How was `C[Si](C)(C)C(c1ccccc1)c1ccccc1` classified in this test?
False

Please share the test call associated with `O=C1COCCN1c1ccc(NCc2cn(Cc3cccc4ccccc34)c3ccccc23)cc1` .
False

Name the outcome recorded for `O=c1c2cccc3c(N4CCCC4)ccc(c32)c2nc3ccccc3n12` in the assay.
False

Name the outcome recorded for `COc1cc2c3c(c1O)-c1ccccc1[C@@H]1OC(=O)N(CC2)[C@H]31` in the assay.
False

Would you mind telling me which call this test gave `COc1ccc2nc3cc(Cl)ccc3c(Nc3ccc(N(C)C)cc3)c2c1` ?
False

Answer briefly: the call reported for `CC1(C)N=C(N)N=C(N)N1c1ccc(OCCCCOc2ccc(S(=O)(=O)F)cc2)c(Cl)c1` in this assay.
False

Recorded test call requested for `CN(C)c1ccc(N=C2C=CC(=O)c3ccccc32)cc1`
False

// outcome(item) with item = `CCn1cc(C(=O)O)c(=O)c2cc(F)c(N3CCN(S(=O)(=O)c4ccc(OC)c(OC)c4)CC3)cc21`
False

Call for entry `N#Cc1c(-c2ccc(F)cc2)nc(N/N=C/c2cccc(O)c2)nc1N1CCOCC1` :
False

GET /call?item= `COc1ccc(C2=C(c3cccc(OC)c3)C(=O)c3ccc(C)nc3C2=O)cc1` returns the recorded outcome of this test.
False

What classification did `C=C(C)[C@@H]1CC[C@]2(C(=O)O)CC[C@]3(C)[C@H](CC[C@@H]4[C@@]5(C)C/C(=C/c6ccco6)C(=O)C(C)(C)[C@@H]5CC[C@]43C)[C@@H]12` end up with in this test?
True

# lookup: test call for `N=C(N)c1ccc(-c2ccc(-c3cncc4ccccc34)s2)s1`
False

Hello, I am checking results. What call was entered for `Cn1ccnc1C(=O)/C=C/c1ccc(CC(=O)Nc2cc(C(F)(F)F)cc(C(F)(F)F)c2)cc1` ?
False

Each compound tested received a call. Report the one for `CNCCCn1c2c(c3ccc([N+](=O)[O-])cc3c1=O)C(=O)c1cc(OC)cnc1-2` .
True

* * *

test system: NCI-H23 lung; assay: NCI-60 one-dose screen, 48 h (100 = growth as untreated, 0 = no growth, -100 = all killed); conditions: 10 µM unless noted
This is part of a sample that, as a whole, favours compounds with a hit. Of some 83,000 tested, about 20% had one in any assay.
Returns 1 if the recorded growth is greater than or equal to 80%, and 0 otherwise.

Tell me whether growth is at least 80% here: CC(C)(C)[Si](C)(C)OC1[C@@H](O[Si](C)(C)C(C)(C)C)[C@@H](CNC(=O)NC(=O)CF)O[C@H]1n1cnc2c(NC(=O)Nc3ccccc3)ncnc21 (stereo not given in full)
0

Is growth at least 80%? Consider `Nc1cccc(CC(=O)Nc2ccc(S(=O)(=O)F)cc2)c1`
1

Is it the case that NC(Cc1ccc2c(c1)OCO2)c1ccc2c(c1)OCO2 (stereo not given) has growth reaching or exceeding 80%?
1

Reported growth at or above 80%? O=CN1N=C(c2ccccc2)CC1c1sc(N(CCCl)CCCl)nc1Cl (stereo not given)
1

Threshold query (growth >= 80%) on `CN=C(NN)NN`
1

Entry `c1ccc(-c2ccc3ccccc3[o+]2)cc1` : is its growth no less than 80%?
1

Quick check: does `CCC[CH2][Sn]([CH2]CCC)([CH2]CCC)[O]C(=O)CC` have growth greater than or equal to 80%?
0

Is growth at least 80%? Consider `CC(C)(C)N(Cc1ccccc1)N=O`
1

// inclusive: growth at least 80%? input: N#C[Se]CCCNS(=O)(=O)C1CC2C=CC1C2 (stereo not given)
0

Check if growth >= 80% (inclusive). Item: `Nc1ccc([N+](=O)[O-])c2c1Oc1ccccc1O2`
1

Has `COc1cc(CNCCc2ccc(Cl)cc2)cc(OC)c1O` a recorded growth greater than or equal to 80%?
0

Threshold query (growth >= 80%) on `O1[As]2O[As]3O[As]1O[As](O2)O3`
0

API: above_or_equal(metric=growth, cutoff=80%) for item `O=C(CCCN1CCC2(CC1)C(=O)NCN2c1ccc(F)cc1)c1ccc(F)cc1`
1

Does the compound `CCCC(C)(C)c1ccc2c(c1)OC(C)(C)[C@@H]1CC=C(C)C[C@@H]21` have recorded growth that is 80% or more?
1

Does the reported growth for `CC[C@@H](C)/C=C(C)/C=C/C(=O)c1c(O)c(-c2ccc(O)cc2)cn(O)c1=O` fall at or above the 80% mark?
0

Does the reported growth for `COc1ccccc1N1CCN(CCc2c[nH]c3cc4c(cc23)OCO4)CC1` fall at or above the 80% mark?
0

Check if growth >= 80% (inclusive). Item: `O=C1c2ccccc2C(=O)N1[N+](=O)[O-]`
1

Check this compound for growth at or above 80%: `CC[CH2][Pb]([CH2]CC)([CH2]CC)[O]C(=O)C(F)(F)F`
0

Could you tell me if the measured growth of `N#[N+]c1cnc([O-])[nH]c1=O` reaches 80% or more?
0

* * *

system: SNB-75 CNS; experiment: NCI-60 one-dose screen, 48 h (100 = growth as untreated, 0 = no growth, -100 = all killed); details: 10 µM unless noted
About 83,000 compounds went through this panel and 20% of them were active in at least one assay; those are over-represented in the sample as a whole.
# class assignment by measured growth: low class = under 30%, middle class = from 30% up to 90%, high class = 90% and over

Band assignment needed for `CCC[CH2][Sn]([CH2]CCC)([CH2]CCC)[O]C(=O)c1ccc(Cl)cc1Cl` please.
low class

Class? Entry: COc1ccc(C2SCC(=O)Nc3c2c(C)nn3-c2nc3ccc(C)cc3s2)cc1O (centres undefined)
middle class

Kindly state the category for this molecule: `CN=C(NN)NN`
high class

Using the reported growth, which band applies to NC(Cc1ccc2c(c1)OCO2)c1ccc2c(c1)OCO2 (centres undefined) ?
middle class

Where would `O=C(CCF)c1ccc(O)cc1` land among the classes by reported growth?
high class

Class (by measured growth) for `COc1ccc(-c2ccc(OC)c(OC)c2OC)cc1`
low class

Textbook exercise: identify the category of the molecule given here, `Cc1cc(CCl)c(C)cc1CCl` , according to its measured value.
middle class

Classify this molecule: `N#CC(C#N)=Cc1ccc2ccccc2c1`
high class

Input O=CN1N=C(c2ccccc2)CC1c1sc(N(CCCl)CCCl)nc1Cl (centres undefined) ; output its category
middle class

Into which category would you place `OB([O][Hg][c]1ccccc1)[O][Hg][c]1ccccc1` ?
low class

Bin? `COc1ccc(/C=C(/C(=O)N2CCCC2)c2cc(OC)c(OC)c(OC)c2)cc1N`
low class

* * *

system: OVCAR-8 ovarian; assay: NCI-60 one-dose screen, 48 h; details: 10 µM unless noted
This is part of a sample that, as a whole, favours compounds with a hit. Of some 83,000 tested, about 20% had one in any assay. The source made the active and inactive calls. How the source made its calls: active means growth percent below 10; inactive means the rest.
Result category, one only: true (active), false (inactive)

GET /call?item= CC1CC=CCC12C(=O)NC(=S)NC2=O (stereo unspecified) returns the recorded outcome of this test.
false

// outcome(item) with item = `CC1(C)N=C(N)N=C(N)N1c1ccc(CCCCc2ccc(S(=O)(=O)F)cc2)cc1`
false

Write down the call the test reported for this molecule. Item: `S=P(N1CCCCCC1)(N1CC1)N1CC1`
false

Per the assay record, what outcome was assigned to `O=C(Nc1ccc(S(=O)(=O)F)cc1)Oc1ccccc1` ?
false

Dear colleague, could you share the recorded outcome for CC12CCC(=O)C=C1CCC1C2CCC2(C)C(C(=O)COC(=O)Cc3ccc(N(CCCl)CCCl)cc3)CCC12 (stereo unspecified) when you have a moment?
false

How did this test come out for `O=c1[nH]c2cc(Cl)ccc2n1C1CCN(CCCC(c2ccc(F)cc2)c2ccc(F)cc2)CC1` ?
true

Called result for `CCN(CC)CCOc1c(C(C)C)cccc1C(C)C`
false

Please state the recorded outcome for this molecule: CC(=O)C1CCC2C3CC=C4CC(OC(=O)Cc5ccc(N(CCCl)CCCl)cc5)CCC4(C)C3CCC12C (stereo unspecified)
false

Assay outcome for `Cc1ccc(C[As+](c2ccccc2)(c2ccccc2)c2ccccc2)cc1` : what was it?
true

Called result for `c1ccc2nc(OCCN3CC3)ccc2c1`
false

Which outcome did this test record for the molecule `CC(=O)Oc1ccc(Cl)cc1` ?
false

* * *

test system: HL-60(TB) leukemia; assay: NCI-60 one-dose screen, 48 h; conditions: 10 µM unless noted
This is part of a sample that, as a whole, favours compounds with a hit. Of some 83,000 tested, about 20% had one in any assay. Active and inactive are the calls of the source. Rule for the calls: active = growth percent below 10; inactive = the rest.
Bench note: report the call from TRUE (active), FALSE (inactive)

For `O=C(Nc1ccccc1Cl)c1cnc2ccc(C3CCNCC3)cn12` , which call appears in the assay record?
FALSE

Recorded test outcome, item `C#CC#CC#CC#CC#CC#CC#CC#CC[C@@H]1OC[C@@H](COC(=O)O[C@@H](C(=O)O[C@H]2C[C@@]3(O)[C@@H](OC(=O)c4ccccc4)[C@@H]4[C@]5(OC(C)=O)CO[C@@H]5C[C@H](O)[C@@]4(C)C(=O)[C@H](OC(C)=O)C(=C2C)C3(C)C)[C@@H](NC(=O)c2ccccc2)c2ccccc2)O1`
TRUE

Could you kindly confirm the outcome this assay logged for `Cc1nc(Nc2ccc(Cl)cc2)c2cnn(-c3ccccc3)c2n1` ?
FALSE

For COc1cc2c(c(OC)c1)C1c3cc(OC)ccc3NC(=O)N1CC2 (stereo not given) , what call appears in the results of this test?
FALSE

Call for entry CC1C=CC(OC(=O)C(C)(O)CCC(O)(C(=O)OC2CC(O)C(C(C)C)CC2(C)O)C(C)C)(C(C)C)CC1 (stereo not given) :
TRUE

Recorded test outcome, item `CCOS(=O)(=O)c1ccc([N+](=O)[O-])cc1`
FALSE

Which outcome did this test record for the compound `S=c1[nH]nc(-c2cc3ccc2CCc2ccc(cc2)CC3)n1C1CC1` ?
FALSE

Any idea what this test logged for `CCCCCCCC/C=C/CCCCCCCC1=NC(C)(C)CN1CCO` ?
TRUE

State the result this test recorded for `Cc1ccc(/C=C2\COc3ccc(O)cc3C2=O)cc1` .
TRUE

// outcome(item) with item = `COc1cc(-c2n/c(=C\c3c(O)[nH]c4cc(Cl)ccc34)cc3c2=Nc2ccccc2-3)cc(OC)c1OC`
FALSE

Record lookup: outcome of this test for CN1c2ccccc2C(C)(C)C12C=Cc1cc(O)ccc1O2 (stereo not given) ?
TRUE

Tell me the recorded outcome of this test for `CC(C)(C)c1ccc(OCCOC(=O)CBr)cc1` .
FALSE

Record lookup: outcome of this test for `O=C1Nc2ccccc2/C1=C\c1ccccc1O` ?
FALSE

Which outcome did this test record for the compound CCN1C(=O)N(CC)C2Nn3c(s/c(=C\c4ccccc4Br)c3=O)=NC21 (stereo not given) ?
TRUE

Test call, this compound: `COc1cc2cc3c(=O)n4c(cc5cc(OC)ncc54)c(=O)n3c2cn1`
FALSE

Per the records of this test, what outcome belongs to `O=C1c2cccc3cccc(c23)C(=O)N1CC#Cc1ccc2c3c(cccc13)C(=O)N(CCN1CCNCC1)C2=O` ?
FALSE

Identify the outcome logged in this assay for the compound shown: `C[C@@H](Oc1cc(-n2cnc3ccc(CN4CCN(C)CC4)cc32)sc1C(N)=O)c1ccccc1C(F)(F)F`
TRUE

Dear colleague, could you share the recorded outcome for `Cc1ccc(-c2cn3cc([N+](=O)[O-])ccc3n2)cc1` when you have a moment?
FALSE

I would be grateful if you could indicate the recorded call for `Nc1c(C(=O)c2ccccc2)sc2nc(-c3cc4ccccc4o3)cc(-c3ccc(Cl)cc3)c12` .
FALSE

Could you please tell me the result logged for `Cn1c(N)c(N=Cc2ccccc2)c(=O)n(C)c1=O` in this assay?
FALSE
